Data provenance is patent US12590062B2.

# measurementTarget: PD-1/PD-L1 interaction (Homo sapiens)
# Construct: expressed in transfected cells; host or cells: CHO cells (aAPC-PD-L1) co-cultured with Jurkat cells overexpressing PD-1 and an NFAT-luciferase reporter
# protocolDetails: PD-1/PD-L1 NFAT reporter co-culture assay
# Format: cell-based
# statedConditions: Jurkat PD-1 NFAT-luciferase cells co-cultured with aAPC-PD-L1 CHO cells, 6 hrs at 37° C.; read-out: EC50 NFAT Luciferase
pEC50: −log10 of the molar value.
measuredProperty: pEC50

Would you please look over these solved cases?
>>> endpointresult("COc1nc(O[C@H]2CCc3c(-c4cccc(-c5ccc(CN6CC7(C6)CN(C(C)=O)C7)cc5)c4Cl)cccc32)c(Cl)cc1CN1CC[C@@H](C(=O)O)C1")
6.89
>>> endpointresult("COc1nc(O[C@H]2CCc3c(-c4cccc(-c5ccc(CNC[C@@H]6CCC(=O)N6)cc5)c4Cl)cccc32)c(Cl)cc1CN1CCC[C@H](C(=O)O)C1")
6.96

A: CCOC(=O)[C@@H]1CCN(Cc2cc(Cl)c(O[C@H]3CCc4c(-c5cccc(-c6ccc(CN7CC8(C7)CN(C(C)=O)C8)cc6)c5Cl)cccc43)nc2OC)C1
B: Cc1c(COc2nc(OCc3cc(C#N)cc(C#N)c3)c(CNC[C@@H](O)CC(=O)O)cc2Br)cccc1-c1cccc(COc2nc(OCc3cc(C#N)cc(C#N)c3)c(CNC[C@@H](O)CC(=O)O)cc2Br)c1C
Hey, which is lower on measured pEC50, A or B ? Respond with the label that goes with your answer. A

* * *

# measurementTarget: PD-1/PD-L1 interaction (Homo sapiens, UniProt Q9NZQ7)
# Construct: expressed in transfected cells; host or cells: CHO cells (aAPC-PD-L1) co-cultured with Jurkat cells overexpressing PD-1 and an NFAT-luciferase reporter
# Sequence (Q9NZQ7 19-290): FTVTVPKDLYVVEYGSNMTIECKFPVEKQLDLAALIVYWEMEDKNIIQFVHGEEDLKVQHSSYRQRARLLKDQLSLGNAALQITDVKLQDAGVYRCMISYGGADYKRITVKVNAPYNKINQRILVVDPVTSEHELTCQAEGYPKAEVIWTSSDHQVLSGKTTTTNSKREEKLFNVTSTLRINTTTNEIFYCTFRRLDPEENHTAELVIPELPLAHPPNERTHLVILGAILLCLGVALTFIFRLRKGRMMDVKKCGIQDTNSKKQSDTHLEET
# protocolDetails: PD-1/PD-L1 NFAT reporter co-culture assay
# Type: cell-based
# statedConditions: Jurkat PD-1 NFAT-luciferase cells co-cultured with aAPC-PD-L1 CHO cells, 6 hrs at 37° C.; read-out: EC50 NFAT Luciferase
pEC50: −log10 of the molar value.
measuredProperty: pEC50

Solved entries (count: 2):
>>> endpointresult("COc1nc(O[C@H]2CCc3c(-c4cccc(-c5ccc(CNC[C@@H]6CCC(=O)N6)c(OCC#N)n5)c4Cl)cccc32)c(Cl)cc1CN[C@@H]1CCC[C@@H]1O [Example 651]")
7.39
>>> endpointresult("Cc1c(COc2cc(OCc3cncc(C#N)c3)c(CNC[C@@H](O)CC(=O)O)cc2Cl)cccc1-c1cccc(-c2ccc3c(c2)CC(NCC2CCC(=O)N2)C3)c1C (stereo partly drawn) [Example 439]")
6.57

a: Cc1c(COc2cc(OCc3cncc(C#N)c3)c(CN[C@@](C)(CO)C(=O)O)cc2Cl)cccc1-c1cccc(-c2ccc3[nH]c([C@@H]4CCCN4)nc3c2)c1C [Example 299]
b: Cc1c(COc2nc(OCc3cncc(C#N)c3)c(CNC[C@H](O)CC(=O)O)cc2Cl)cccc1-c1cccc(COc2nc(OCc3cncc(C#N)c3)c(CNC[C@H](O)CC(=O)O)cc2Cl)c1C [Example 32]
Hi there! Just curious which has the higher pEC50 between a and b . Reply briefly: the label of your chosen item. b

* * *

# measurementTarget: PD-1/PD-L1 interaction (Homo sapiens)
# Construct: expressed in transfected cells; host or cells: CHO cells (aAPC-PD-L1) co-cultured with Jurkat cells overexpressing PD-1 and an NFAT-luciferase reporter
# protocolDetails: PD-1/PD-L1 NFAT reporter co-culture assay
# Format: cell-based
# statedConditions: Jurkat PD-1 NFAT-luciferase cells co-cultured with aAPC-PD-L1 CHO cells, 6 hrs at 37° C.; read-out: EC50 NFAT Luciferase
pEC50: −log10 of the molar value.
measuredProperty: pEC50

>>> endpointresult("COC(=O)[C@H](C)NCc1cc(Cl)c(OCc2cccc(-c3cccc(COc4nc(OC)c(CN[C@@H](C)C(=O)OC)cc4Cl)c3C)c2C)nc1OC")
6.32
>>> endpointresult("Cc1c(COc2cc(OCc3cncc(C#N)c3)c(CNC[C@@H](O)CC(=O)O)cc2Cl)cccc1-c1cccc(-c2ccc3c(c2)CC(N2CC(C)(O)C2)C3)c1C (stereo partly shown)")
6.03
>>> endpointresult("COc1nc(-c2cccc(-c3cccc(COc4nc(OCc5cncc(C#N)c5)c(CNC[C@@H](O)CC(=O)O)cc4Br)c3Cl)c2Cl)ccc1C1=NCCN1")
7.29
>>> endpointresult("Cc1c(COc2cc(OCc3cncc(C#N)c3)c(CNC[C@@H](O)CC(=O)O)cc2Cl)cccc1-c1cccc(-c2ccc(OCCNC[C@@H](O)CC(=O)O)c(F)c2)c1C")
6.73
>>> endpointresult("Cc1c(COc2cc(OCc3cncc(C#N)c3)c(CN[C@@](C)(CO)C(=O)O)cc2Cl)cccc1-c1cccc(-c2ccc(S(N)(=O)=O)cc2)c1C")
7.10

A: COc1nc(OCc2cccc(-c3cccc(COc4nc(OC)c(CNC[C@@H](O)CC(=O)O)cc4C)c3C)c2C)c(C)cc1CNC[C@@H](O)CC(=O)O
B: Cc1c(COc2cc(OCc3cncc(C#N)c3)c(CNCCO)cc2Cl)cccc1-c1cccc(-c2ccc(CN(C)C)cc2)c1Br
Between A and B , whose measured pEC50 reads higher? Kindly state the label of the option you pick. B

* * *

# measurementTarget: PD-1/PD-L1 (Homo sapiens, UniProt Q9NZQ7)
# Sequence (Q9NZQ7 19-238 limits assumed): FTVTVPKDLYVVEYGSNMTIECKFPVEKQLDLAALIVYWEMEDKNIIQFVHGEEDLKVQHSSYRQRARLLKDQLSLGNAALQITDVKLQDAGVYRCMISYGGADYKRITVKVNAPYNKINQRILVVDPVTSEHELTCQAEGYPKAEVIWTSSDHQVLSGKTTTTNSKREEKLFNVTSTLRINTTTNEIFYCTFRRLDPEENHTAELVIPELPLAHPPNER
# protocolDetails: PD-1/PD-L1 biochemical protein-protein interaction assay (ALPHA)
# statedConditions: 0.3 nM His tagged PD-L1, 2.5 nM biotinylated Fc-PD-1, 60 minutes at 25° C., read-out: IC50 PD-L1-PD-1 Alpha IC50-mono PD-L1-fcP-D1
measuredProperty: IC50 (nM)

Answered examples (3):
>>> endpointresult("Cc1c(COc2cc(OCc3cncc(C#N)c3)c(CNC(C)(C)C(=O)O)cc2Cl)cccc1-c1cccc(-c2ccc(CN(C)C)cc2)c1Br [Example 482]")
0.064
>>> endpointresult("COc1ccc(COc2nc(OCc3cccc(-c4cccc(COc5nc(OCc6ccc(OC)nc6)c(CNC[C@@H](O)CC(=O)O)cc5Br)c4C)c3C)c(Br)cc2CNC[C@@H](O)CC(=O)O)cn1 [Example 253]")
4.6
>>> endpointresult("Cc1c(COc2nc(OCc3cnnn3Cc3ccccc3)c(CNC[C@@H](O)CC(=O)O)cc2Br)cccc1-c1cccc(COc2nc(OCc3cnnn3Cc3ccccc3)c(CNC[C@@H](O)CC(=O)O)cc2Br)c1C [Example 139]")
5.1

1: COc1nc(-c2cccc(-c3cccc4c3CC[C@@H]4Oc3nc(OCc4cncc(C#N)c4)c(CN[C@@](C)(CO)C(=O)O)cc3Br)c2Cl)ccc1C1=NCCN1 [Example 744]
2: COc1nc(-c2cccc(-c3cccc4c3CC[C@@H]4Oc3nc(OC)c(CN[C@@H]4CCC[C@@H]4O)cc3Cl)c2Cl)ccc1CN[C@@H]1CCC[C@@H]1O [Example 646]
Looking at recorded values for IC50, does 1 or 2 come in lower? State the label of the item chosen. 1

* * *

# measurementTarget: interaction between the recombinant extracellular domain (ECD) of PD-1 and native cell-bound PD-L1 (Homo sapiens)
# Sequence (Q9NZQ7 19-290): as the sequence (Q9NZQ7 19-290) above
# protocolDetails: CHO/PD-L1 cell capture assay
# statedConditions: CHO cells overexpressing PD-L1, pre-incubated 1 hr with compound, captured on biotinylated Fc-PD-1 coated plates, 75 min at room temperature
pEC50: −log10 of the molar value.
measuredProperty: pEC50

>>> endpointresult("Cc1c(COc2cc(OCc3cncc(C#N)c3)c(CNC[C@@H](O)CC(=O)O)cc2Cl)cccc1-c1cccc(-c2ccc3c(cnn3CCNC[C@@H](O)CC(=O)O)c2)c1C")
7.88

P: COc1nc(OC2CCc3c(-c4cccc5c4CCC5Oc4nc(OC)c(CNC[C@@H](O)CC(=O)O)cc4Cl)cccc32)c(Cl)cc1CNC[C@@H](O)CC(=O)O (stereo partly drawn)
Q: Cc1c(COc2nc(OCCN3CCOCC3)c(CNC[C@@H](O)CC(=O)O)cc2Cl)cccc1-c1cccc(COc2nc(OCCN3CCOCC3)c(CNC[C@@H](O)CC(=O)O)cc2Cl)c1C
Which value of pEC50 is numerically greater: that of P or that of Q ? Give the label of your selection. P

* * *

# measurementTarget: PD-L1 (Homo sapiens, UniProt Q9NZQ7)
# Construct: determine if they can specifically dimerize the extracellular domains of PD-L1
# Sequence (Q9NZQ7 19-238 limits assumed): as the sequence (Q9NZQ7 19-238 limits assumed) above
# Sequence (Q9NZQ7 19-238 limits assumed): as above
# protocolDetails: PD-L1/PD-L1 dimerization biochemical protein-protein interaction assay (ALPHA)
# Type: binding
# statedConditions: compound-induced PD-L1 dimerization, head prints '1 nM' (0.5 nM His-tagged PD-L1 and 0.5 nM FLAG-tagged PD-L1), read-out: AC50 PDL1 Dimer Alpha 1 nM
measuredProperty: AC50 (nM)

I: COc1nc(-c2cccc(-c3cccc(-c4nc5cc(CNCCO)ccc5o4)c3Cl)c2Cl)ccc1CNCCO
II: COc1nc(OCc2cccc(-c3cccc(COc4nc(OC)c(CN(CCCC(N)=O)CC(=O)O)cc4Br)c3C)c2C)c(Br)cc1CN(CCCC(N)=O)CC(=O)O
III: COc1nc(-c2cccc(-c3cccc4c3CC[C@@H]4Oc3nc(OC)c(CN4CCC[C@@H](C(=O)O)C4)cc3Cl)c2Cl)ccc1CNC[C@@H]1CCC(=O)N1
IV: CC(C)(NCc1cc(Br)c(OCc2cccc(-c3cccc(-c4ccc5c(c4)C[C@@H](N)C5)c3Cl)c2Cl)nc1OCc1cncc(C#N)c1)C(=O)O
V: C[C@@](CO)(NCc1cc(Cl)c(OCc2cccc(-c3cccc(-c4ccc(OCCNCCO)cc4)c3Cl)c2Cl)nc1OCc1cc(C#N)cc(C#N)c1)C(=O)O
Arrange by AC50, high to low. Please list the labels according to the requested order. II, I, V, III, IV
(II: 361 nM, I: 83.6 nM, V: 56.3 nM, III: 36.7 nM, IV: 12.4 nM)
